ASSAYED TARGET: T1, Soluble IGF-1R (R&D Systems, Cat. # 391-GR/CF); recombinant human IGF-1R (human, UniProt P08069 31-935)
T1 construct: extracellular domain; Eu3+-labelled in the TR-FRET assays; also called sIGF-1R; rhIGF-1R
EXPERIMENTAL DETAILS: phage ELISA vs milk
Positions of bridges follow the written chain, without caps; N, C: chain ends. No end group written: not given here.
ENDPOINT LABEL: Ratio over Background (fold)
Output spec: scalar in fold, unitless text.

Entry SQAGSAFYAWFDQVLRTVHSA [20E2Bβ-4-G6-IR] — recorded Ratio over Background = 6.2

Entry YRGMLVLGRISGGAGKAASERPARIGQKVSAVNFYDWFV [A6L-0-H3-IR] — recorded Ratio over Background = 26

Entry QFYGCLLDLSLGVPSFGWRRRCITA (disulfide 5-22 (inferred)) [20C-3-A4-IGFR] — recorded Ratio over Background = 8.8

Entry PPLASDLDVQFYGWFVQQVSPPGRGG [H2CA-2-B3-IGFR] — recorded Ratio over Background = 3.8

Value source: patent US20030236190A1
